Reported pIC50 is given for each of the following molecules.
target: GST-JAK2(808-1132) (Homo sapiens); construct: GST-JAK2(808-1132); purchased Invitrogen (Carlsbad, USA) #4288; test: JAK2 kinase assay (Caliper mobility shift, LabChip 3000); assay type: biochemical
pIC50: −log10 of the molar value.

These solved cases illustrate the format of a correct answer.
MOLECULE	DATA_VALUE
Cc1ccc(Nc2ncc3ccn(-c4cc(F)c(CN5CCS(=O)(=O)CC5)c(F)c4)c3n2)cc1CN1CCN(C)CC1 [Example 421]	≥ 8.52
CN1CCN(c2ccc(Nc3ncc4ccn(-c5cc(F)c(CN6CCS(=O)(=O)CC6)c(F)c5)c4n3)cn2)CC1 [Example 443]	≥ 8.52
Fc1cc(-n2ccc3cnc(Nc4ccc(CN5CCNCC5)cc4)nc32)cc(F)c1CN1CCOCC1 [Example 315]	> 8.52

Problem: Tell me reported pIC50 for C[C@@H]1CN(Cc2ccc(Nc3ncc4ccn(-c5ccc6c(c5)CCC(=O)N6)c4n3)cc2)C[C@H](C)N1 [Example 468] , tested with GST-JAK2(808-1132) (Homo sapiens).
Result: ≥ 8.52

Problem: // repeat for COCc1ccc(Nc2ncc3ccn(-c4cc(F)c(CN5CCS(=O)(=O)CC5)c(F)c4)c3n2)cc1 [Example 184] and report
Result: > 8.52

Problem: Param item: Fc1cc(-n2ccc3cnc(Nc4ccnc(OCC5CCNCC5)c4)nc32)cc(F)c1CN1CCOCC1 [Example 392]
Result: ≥ 8.52

Problem: How about Cc1ccc(Nc2ncc3ccn(-c4cc(F)c(CN5CCOCC5)c(F)c4)c3n2)cc1CN1CCNCC1 [Example 332] ?
Result: ≥ 8.52

Problem: Quick one: O=S1(=O)CCN(Cc2c(F)cc(-n3ccc4cnc(Nc5ccc(N6CCNCC6)nc5)nc43)cc2F)CC1 [Example 444]
Result: ≥ 8.52

Problem: Another molecule: CN1CCN2c3ccc(Nc4ncc5ccn(-c6ccc(S(C)(=O)=O)cc6)c5n4)cc3COCC2C1 (stereo not drawn) [Example 12]
Result: > 8.52

Problem: Now try O=C(c1ccc(-n2ccc3cnc(Nc4ccc(CN5CCOCC5)cc4)nc32)cc1F)N1CCOCC1 [Example 288] .
Result: > 8.52

Problem: Now consider Cc1ccc(Nc2ncc3ccn(-c4cc(F)c(CN5CCOCC5)c(F)c4)c3n2)cc1CN1CCNC(C)(C)C1 [Example 385] and answer again.
Result: ≥ 8.52

Problem: What would you report for Cc1cc(Nc2ncc3ccn(-c4ccc(S(C)(=O)=O)cc4)c3n2)ccc1C(=O)N1CCOCC1 [Example 74] ?
Result: > 8.52

###

Overview of recorded pIC50 for various compounds
biological target: GST-JAK2(808-1132) (Homo sapiens); construct: GST-JAK2(808-1132); purchased Invitrogen (Carlsbad, USA) #4288; assay: JAK2 kinase assay (Caliper mobility shift, LabChip 3000); assay type: biochemical
pIC50: −log10 of the molar value.

COMPOUND	DATA_VALUE
Cc1cc(Nc2ncc3ccn(-c4cc(F)c(CN5CCOCC5)c(F)c4)c3n2)cnc1N1CCNCC1=O	≥ 8.52
Cc1ccc(Nc2ncc3ccn(-c4cc(F)c(CN5CCOCC5)c(F)c4)c3n2)cc1CN1CCN(CCN(C)C)C(=O)C1	≥ 8.52
O=C(c1ccc(-n2ccc3cnc(Nc4ccc(F)cc4)nc32)cc1)N1CCCC1	> 8.52
COc1cc(Nc2ncc3ccn(-c4ccc(C(=O)N5CCOCC5)c(C)c4)c3n2)ccc1F	> 8.52
CS(=O)(=O)c1ccc(-n2ccc3cnc(Nc4ccc(CN5CCOCC5)cc4)nc32)cc1	> 8.52

Problem: pIC50 lookup needed for CN(C)C1CCN(Cc2cc(Nc3ncc4ccn(-c5cc(F)c(CN6CCOCC6)c(F)c5)c4n3)ccn2)C1 (racemic) , thanks.
Result: ≥ 8.52

Problem: CS(=O)(=O)c1ccc(-n2ccc3cnc(Nc4ccc(CN5CCS(=O)(=O)CC5)cc4)nc32)cc1 , same question.
Result: > 8.52

###

biological target: GST-JAK2(808-1132) (Homo sapiens); construct: GST-JAK2(808-1132); purchased Invitrogen (Carlsbad, USA) #4288; assay: JAK2 kinase assay (Caliper mobility shift, LabChip 3000); format: biochemical
pIC50: −log10 of the molar value.
# maps each entry to its pIC50

Example results:
SMILES_STRUCTURE	MEASUREMENT_LABEL	DATA_VALUE
C[C@@H]1CN(Cc2ccc(Nc3ncc4ccn(-c5cc(F)c(CN6CCOCC6=O)c(F)c5)c4n3)cc2)C[C@H](C)N1	pIC50	≥ 8.52
Cc1ccc(Nc2ncc3ccn(-c4cc(F)c(CN5CCS(=O)(=O)CC5)c(F)c4)c3n2)cc1CN1CCNCC1	pIC50	≥ 8.52

Pending compound:
Problem: Consider the compound Cc1cc(Nc2ncc3ccn(-c4cc(F)c(CN5CCS(=O)(=O)CC5)c(F)c4)c3n2)cc(C)c1OCCN1CCOCC1 and give its measured pIC50.
Result: ≥ 8.52

###

Catalogue of IC50 readings, one per entry.
molecular target: GST-JAK2(808-1132) (Homo sapiens, UniProt O60674); construct: GST-JAK2(808-1132); purchased Invitrogen (Carlsbad, USA) #4288; experiment: JAK2 kinase assay (Caliper mobility shift, LabChip 3000); format: biochemical
Sequence (O60674 808-1132): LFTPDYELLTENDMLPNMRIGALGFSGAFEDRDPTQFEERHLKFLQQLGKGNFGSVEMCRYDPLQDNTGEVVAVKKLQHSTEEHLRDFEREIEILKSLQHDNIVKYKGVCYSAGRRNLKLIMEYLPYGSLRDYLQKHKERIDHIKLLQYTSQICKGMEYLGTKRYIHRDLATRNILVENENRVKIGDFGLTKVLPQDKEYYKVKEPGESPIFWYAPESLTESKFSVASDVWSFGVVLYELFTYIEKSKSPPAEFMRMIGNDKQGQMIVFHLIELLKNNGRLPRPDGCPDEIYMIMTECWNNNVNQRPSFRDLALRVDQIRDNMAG

The examples below pair each entry with its known result.
COMPOUND	IC50
CN1CCN(C(=O)c2ccc(Nc3ncc4ccn(-c5cc(F)c(CN6CCOCC6)c(F)c5)c4n3)cc2C(F)(F)F)CC1	< 3 nM
OC1CCN(c2ccc(Nc3ncc4ccn(-c5cc(F)c(CN6CCOCC6)c(F)c5)c4n3)cn2)C1 (racemic)	≤ 3 nM

Shifting focus to the compound that follows.
Problem: Would you mind telling me what IC50 value was observed for Cc1cc(Nc2ncc3ccn(-c4cc(F)c(CN5CCOCC5)c(F)c4)c3n2)cnc1N1CCNCC1 ?
Result: ≤ 3 nM

###

biological target: GST-JAK2(808-1132) (Homo sapiens, UniProt O60674); construct: GST-JAK2(808-1132); purchased Invitrogen (Carlsbad, USA) #4288; assay: JAK2 kinase assay (Caliper mobility shift, LabChip 3000); format: biochemical
MEASUREMENT_LABEL: IC50

Past entries and their recorded results:
COMPOUND	MEASUREMENT_LABEL	DATA_VALUE
COc1ccc(Nc2ncc3ccn(-c4ccc(S(=O)(=O)NC(C)(C)C)cc4)c3n2)cc1OC [Example 6]	IC50	< 3 nM
CN1CCN(C(=O)c2ccc(Nc3ncc4ccn(-c5cc(F)c(CN6CCS(=O)(=O)CC6)c(F)c5)c4n3)cc2C(F)(F)F)CC1 [Example 186]	IC50	< 3 nM
O=C1CNCCN1Cc1cc(Nc2ncc3ccn(-c4cc(F)c(CN5CCOCC5)c(F)c4)c3n2)ccn1 [Example 409]	IC50	≤ 3 nM
O=C(c1ccc(Nc2ncc3ccn(-c4ccc(CN5CCS(=O)(=O)CC5)cc4)c3n2)cc1)N1CCOCC1 [Example 153]	IC50	< 3 nM
Cc1ccc(Nc2ncc3ccn(-c4cc(F)c(CN5CCOCC5)c(F)c4)c3n2)cc1CN1CCN(CCN(C)C)CC1 [Example 398]	IC50	≤ 3 nM

Problem: Given CS(=O)(=O)c1ccc(-n2ccc3cnc(Nc4ccc(C(=O)N5CCOCC5)cc4)nc32)cc1 [Example 30] , state its recorded IC50.
Result: < 3 nM

Problem: Same for Cc1ccc(Nc2ncc3ccn(-c4cc(F)c(CN5CCOCC5)c(F)c4)c3n2)cc1CN1CCC(O)C1 (racemic) [Example 411]
Result: ≤ 3 nM

Problem: Moving on to CN1CCN(Cc2cccc(Nc3ncc4ccn(-c5cc(F)c(C(=O)N6CCOCC6)c(F)c5)c4n3)c2)CC1 [Example 245]
Result: < 3 nM

Problem: Entry Cc1ccc(Nc2ncc3ccn(-c4cc(F)c(CN5CCS(=O)(=O)CC5)c(F)c4)c3n2)cc1CN1CCC(O)C1 (racemic) [Example 425] please
Result: ≤ 3 nM

Problem: C[C@@H]1CN(c2ccc(Nc3ncc4ccn(-c5ccc(S(N)(=O)=O)cc5)c4n3)cn2)C[C@H](C)N1 [Example 369] ?
Result: ≤ 3 nM

###

Reported IC50 is given for each of the following compounds.
biological target: GST-JAK2(808-1132) (Homo sapiens); construct: GST-JAK2(808-1132); purchased Invitrogen (Carlsbad, USA) #4288; test: JAK2 kinase assay (Caliper mobility shift, LabChip 3000); format: biochemical

These recorded examples may help you get a feel for the data.
COMPOUND	MEASUREMENT_LABEL	DATA_VALUE
Fc1cc(-n2ccc3cnc(Nc4cnn(C5CCNCC5)c4)nc32)cc(F)c1CN1CCOCC1	IC50	< 3 nM
O=C1CN(c2cc(Nc3ncc4ccn(-c5cc(F)c(CN6CCOCC6)c(F)c5)c4n3)ccn2)CCN1	IC50	≤ 3 nM
Fc1cc(-n2ccc3cnc(Nc4ccnc(CN5CCNC(C(F)(F)F)C5)c4)nc32)cc(F)c1CN1CCOCC1 (racemic)	IC50	≤ 3 nM
CCN(CC)CCOc1cccc(Nc2ncc3ccn(-c4ccc(S(C)(=O)=O)cc4)c3n2)c1	IC50	< 3 nM

Problem: I'd like to know its IC50. The compound in question is CCN1CCN(c2ccc(Nc3ncc4ccn(-c5ccc(CC(=O)N6CCS(=O)(=O)CC6)c(F)c5)c4n3)cc2C)CC1
Result: < 3 nM

Problem: Do the same for Cc1cc(Nc2ncc3ccn(-c4cc(F)c(CN5CCOCC5)c(F)c4)c3n2)cnc1N1CCNCC(F)(F)C1 please
Result: ≤ 3 nM

Problem: Now consider Fc1cc(-n2ccc3cnc(Nc4ccnc(CN5CCC(F)(F)C5)c4)nc32)cc(F)c1CN1CCOCC1 and answer again.
Result: ≤ 3 nM
